Would you mind telling me the reported IC50 of each entry?
target: PAK3 (Homo sapiens, UniProt O75914); assay: In vitro PAK inhibition assay (Z'-LYTE, SelectScreen), PAK3; format: biochemical; conditions: read-out: PAK3 IC50
Sequence (O75914 1-544 isoform O75914-2): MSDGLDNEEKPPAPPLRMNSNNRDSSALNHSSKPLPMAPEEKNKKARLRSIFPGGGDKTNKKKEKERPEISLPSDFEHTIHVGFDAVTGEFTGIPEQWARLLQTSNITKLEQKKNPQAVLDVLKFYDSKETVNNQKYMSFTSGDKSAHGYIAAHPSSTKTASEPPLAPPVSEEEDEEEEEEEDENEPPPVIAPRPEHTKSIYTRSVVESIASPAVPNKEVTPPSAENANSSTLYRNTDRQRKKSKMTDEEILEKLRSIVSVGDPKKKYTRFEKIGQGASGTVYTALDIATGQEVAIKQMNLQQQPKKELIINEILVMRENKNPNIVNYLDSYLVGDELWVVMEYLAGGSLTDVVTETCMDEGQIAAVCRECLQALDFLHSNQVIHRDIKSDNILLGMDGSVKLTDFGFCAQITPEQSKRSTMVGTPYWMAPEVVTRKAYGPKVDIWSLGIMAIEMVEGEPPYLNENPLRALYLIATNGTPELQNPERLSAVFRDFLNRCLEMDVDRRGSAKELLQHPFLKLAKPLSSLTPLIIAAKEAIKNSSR

Some compounds with recorded IC50:
[[record]]
compound = "Cc1nccnc1-c1ccc(-c2cc3cnc(N[C@@H]4CCOC4)nc3n(Cc3cccnc3)c2=O)c(Cl)c1 [Example 122]"
measurement = "50 to 500 nM"

[[record]]
compound = "CCn1c(=O)c(-c2ccc(-c3cncc(C)n3)cc2Cl)cc2cnc(NCC3CCC(N(C)C)CC3)nc21 (stereo not drawn) [Example 132]"
measurement = "50 to 500 nM"

[[record]]
compound = "Cc1nccnc1-c1ccc(-c2cc3cnc(N[C@H]4CCOC4)nc3n(Cc3ccccn3)c2=O)c(Cl)c1 [Example 125]"
measurement = "50 to 500 nM"

[[record]]
compound = "Cc1nc(-c2ccc(-c3cc4cnc(NC5CCOCC5)nc4[nH]c3=O)c(Cl)c2)no1 [Example 11]"
measurement = "50 to 500 nM"

[[record]]
compound = "COCCCn1c(=O)c(-c2ccc(-c3cncc(C)n3)cc2Cl)cc2cnc(N[C@H]3CCOC3)nc21 [Example 65]"
measurement = "50 to 500 nM"

[[record]]
compound = "CCn1c(=O)c(-c2ccc(-c3nccnc3C)cc2Cl)cc2cnc(N[C@@H]3CCOC3)nc21 [Example 58]"
measurement = "500 to 5000 nM"

[[record]]
compound = "CCn1c(=O)c(-c2cc(C)c(-c3cncc(C)n3)cc2Cl)cc2cnc(N[C@@H]3CCOC3)nc21 [Example 71]"
measurement = "50 to 500 nM"

[[record]]
compound = "CCn1c(=O)c(-c2ccc(-c3cccnc3C)cc2Cl)cc2cnc(N[C@@H]3CCOC3)nc21 [Example 59]"
measurement = "500 to 5000 nM"

[[record]]
compound = "CCn1c(=O)c(-c2ccc(-c3nccnc3C)cc2Cl)cc2cnc(N[C@@H]3CCOC(C)(C)C3)nc21 (stereo in doubt) [Example 76]"
measurement = "50 to 500 nM"

[[record]]
compound = "CCn1c(=O)c(-c2ccc(-c3cncc(C)n3)cc2Cl)cc2cnc(NCCCOCCCN(C)C)nc21 [Example 130]"
measurement = "50 to 500 nM"


Return reported IC50 values for all items listed beneath this line.
1. Cc1cncc(-c2ccc(-c3cc4cnc(NC(C)C)nc4n([C@H]4CC[C@H](N)CC4)c3=O)c(Cl)c2)n1 [Example 116]
2. CCn1c(=O)c(-c2ccc(-c3nccnc3C)cc2Cl)cc2cnc(NC3CCN(C)C(=O)C3)nc21 (stereo not drawn) [Example 35]
3. CCn1c(=O)c(-c2ccc(-c3nccnc3C)cc2C)cc2cnc(NC3CCOCC3)nc21 [Example 1]

1. < 50 nM
2. 50 to 500 nM
3. 50 to 500 nM

Would you be so kind as to report IC50 for each listed record?
1. CCn1c(=O)c(-c2ccc(-c3nccnc3C)cc2Cl)cc2cnc(NC3CCN(C(C)=O)CC3)nc21 [Example 80]
2. Cc1cncc(-c2ccc(-c3cc4cnc(N[C@@H]5CCOC5)nc4n(CCN)c3=O)c(Cl)c2)n1 [Example 99]

1. 500 to 5000 nM
2. 50 to 500 nM
